measurement kind: melting point

Challenge: Tell me measured melting point for CC(=O)NC[C@H]1CN(c2ccc3c(c2)CCSCC3=O)C(=O)O1 please.
Response given: 232 to 233 °C

Challenge: Tell me measured melting point for CC(=O)NC[C@H]1CN(c2ccc3c(c2)CCSC(=CN(C)C)C3=O)C(=O)O1 please.
Response given: 221 to 222 °C

Challenge: Tell me measured melting point for CC(=O)NC[C@H]1CN(c2ccc3c(c2)CCS(=O)(=O)c2cn[nH]c2-3)C(=O)O1 please.
Response given: 292 to 293 °C

Challenge: Tell me measured melting point for CC(=O)NC[C@H]1CN(c2ccc3c(c2)CCSc2cn[nH]c2-3)C(=O)O1 please.
Response given: 186 to 187 °C

Challenge: Tell me measured melting point for CC(=O)NC[C@H]1CN(c2ccc3c(c2)CCSc2cnc(N)nc2-3)C(=O)O1 please.
Response given: 190 to 191 °C (dec.)

Challenge: Tell me measured melting point for CC(=O)NC[C@H]1CN(c2ccc3c(c2)CCS(=O)(=O)C(=CN(C)C)C3=O)C(=O)O1 please.
Response given: 261 to 263 °C

Challenge: Tell me measured melting point for CC(=O)NC[C@H]1CN(c2ccc3c(c2)CCNC(=O)N3)C(=O)O1 please.
Response given: 177 to 178 °C

Challenge: Tell me measured melting point for CC(=O)NC[C@H]1CN(c2ccc3c(c2)CCS(=O)(=O)c2cnoc2-3)C(=O)O1 please.
Response given: 211 to 212 °C

Challenge: Tell me measured melting point for CC(=O)NC[C@H]1CN(c2ccc3c(c2)CCS(=O)(=O)c2cnc(N)nc2-3)C(=O)O1 please.
Response given: 211 to 213 °C (dec.)

Challenge: Tell me measured melting point for CC(=O)NC[C@H]1CN(c2ccc3c(c2)CCC(N)C(=O)N3)C(=O)O1 (stereo partly shown) please.
Response given: > 160 °C (dec.)
